Field: IC50. Provide a value for each of the molecules that follow.
- target.system: Human KLKB1 (Homo sapiens (Human))
- Sequence (P03952 391-638 limits assumed): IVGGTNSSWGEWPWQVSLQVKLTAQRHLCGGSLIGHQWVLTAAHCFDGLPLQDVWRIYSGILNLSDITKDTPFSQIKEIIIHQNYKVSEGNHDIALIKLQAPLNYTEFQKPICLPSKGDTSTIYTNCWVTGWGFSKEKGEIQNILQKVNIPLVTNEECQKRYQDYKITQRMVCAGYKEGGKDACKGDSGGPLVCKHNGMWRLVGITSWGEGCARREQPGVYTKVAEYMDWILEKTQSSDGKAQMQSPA
- Sequence (P03952 20-390 partner limits assumed): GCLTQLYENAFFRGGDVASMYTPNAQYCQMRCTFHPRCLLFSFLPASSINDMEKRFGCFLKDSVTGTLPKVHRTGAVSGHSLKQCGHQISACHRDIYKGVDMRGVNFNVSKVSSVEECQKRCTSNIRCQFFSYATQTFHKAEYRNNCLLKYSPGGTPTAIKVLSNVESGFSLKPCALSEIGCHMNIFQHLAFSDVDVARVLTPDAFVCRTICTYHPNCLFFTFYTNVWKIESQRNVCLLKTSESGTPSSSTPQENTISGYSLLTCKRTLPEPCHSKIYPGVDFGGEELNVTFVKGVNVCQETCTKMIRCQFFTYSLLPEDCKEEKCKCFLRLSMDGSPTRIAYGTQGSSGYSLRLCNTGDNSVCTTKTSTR
- assay.procedure: KLKB1 kallikrein activity inhibition assay (chromogenic substrate S-2302)
- Assay type: biochemical
- conditions: Table B

Q: May I ask what IC50 has been recorded for O=C(c1ccc(N2CCOCC2)cc1)n1nc(-c2cccn(Cc3ccccc3)c2=O)cc1NCc1ccc(Cl)s1 [Cmpd 53] ?
Ans: > 100000 nM

Q: // IC50 lookup, key: CC(C)(C)C(=O)n1nc(-c2cccn(Cc3cccnn3)c2=O)cc1NCc1ccc(Cl)s1 [Cmpd 81]
Ans: 1000 to 10000 nM

Q: Endpoint output: IC50 of O=C(c1ccsc1)n1nc(-c2cccn(Cc3ccoc3)c2=O)cc1NCc1ccc(Cl)s1 [Cmpd 196] . Value?
Ans: 100 to 1000 nM

Q: Which IC50 reading was recorded for the molecule O=C(c1ccsc1)n1nc(-c2cccn(Cc3ccsc3)c2=O)cc1NCc1ccc(Cl)s1 [Cmpd 203] ?
Ans: 100 to 1000 nM

Q: Fill in: IC50 of O=C(c1cccs1)n1nc(-c2cccn(Cc3ccccc3)c2=O)cc1NCc1ccc(Cl)s1 [Cmpd 51] is ___
Ans: > 100000 nM
